Catalogue of In vitro activity (%) compared with native peptide, vs GIP readings, one per entry.
System: T1, human GIP receptor (human, UniProt P48546 22-466)
T1 sequence (looked up): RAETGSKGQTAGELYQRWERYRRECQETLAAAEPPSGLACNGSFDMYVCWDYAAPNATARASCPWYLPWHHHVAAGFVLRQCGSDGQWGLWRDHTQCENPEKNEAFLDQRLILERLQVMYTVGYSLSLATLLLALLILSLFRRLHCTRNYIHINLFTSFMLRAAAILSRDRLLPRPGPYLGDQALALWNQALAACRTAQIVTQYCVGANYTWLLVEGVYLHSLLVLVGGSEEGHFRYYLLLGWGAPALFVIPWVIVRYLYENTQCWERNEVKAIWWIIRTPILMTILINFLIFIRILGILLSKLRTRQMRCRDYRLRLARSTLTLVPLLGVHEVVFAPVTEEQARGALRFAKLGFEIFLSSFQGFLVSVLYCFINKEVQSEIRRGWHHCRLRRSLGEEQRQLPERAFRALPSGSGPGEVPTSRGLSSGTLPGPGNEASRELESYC
Protocol Details: cell-based or functional assay
Bridge positions count the residues as written; N and C are the ends. Square brackets hold non-standard residues; d marks the D form. Ends that are not written are not given here. * marks the point of attachment. Acetyl(2-(4-imidazolyl)) = O=C(Cc1c[nH]cn1)*; Aib = CC(C)(N)C(=O)O
Attribute Measured: In vitro activity (%) compared with native peptide, vs GIP

Binder: Y[Aib]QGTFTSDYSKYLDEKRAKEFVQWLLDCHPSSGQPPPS (bridge 16-20) [triple agonist of SEQ ID NO: 97]
Experimental Value: 2.6%
--
Binder: H[Aib]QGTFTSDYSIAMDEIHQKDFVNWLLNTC (bridge 16-20) [triple agonist of SEQ ID NO: 57]
Experimental Value: 0.3%
--
Binder: [Acetyl(2-(4-imidazolyl))]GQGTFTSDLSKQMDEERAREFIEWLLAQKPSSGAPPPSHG (not fully specified) [triple agonist of SEQ ID NO: 17]
Experimental Value: < 0.1%
--
Binder: H[Aib]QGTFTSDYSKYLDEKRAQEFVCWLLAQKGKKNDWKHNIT (not fully specified) [triple agonist of SEQ ID NO: 28]
Experimental Value: < 0.1%
--
Binder: H[Aib]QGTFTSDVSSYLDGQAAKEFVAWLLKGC [triple agonist of SEQ ID NO: 6]
Experimental Value: < 0.1%
--
Binder: {Acetyl(2-(4-imidazolyl))}-[Aib]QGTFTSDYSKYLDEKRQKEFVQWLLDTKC (bridge 15-19; numbers in words are those of the source; also: ring between positions 16 and 20, type not given here) [triple agonist of SEQ ID NO: 89]
Experimental Value: < 0.1%
--
Binder: {Acetyl(2-(4-imidazolyl))}-[Aib]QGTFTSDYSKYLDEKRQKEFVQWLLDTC (bridge 15-19; numbers in words are those of the source; also: ring between positions 16 and 20, type not given here) [triple agonist of SEQ ID NO: 82]
Experimental Value: < 0.1%
--
Binder: Y[Aib]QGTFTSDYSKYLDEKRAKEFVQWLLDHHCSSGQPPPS (bridge 16-20) [triple agonist of SEQ ID NO: 43]
Experimental Value: 3.7%
--
Binder: H[Aib]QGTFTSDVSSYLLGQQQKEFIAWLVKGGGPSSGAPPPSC [triple agonist of SEQ ID NO: 5]
Experimental Value: < 0.1%

Just for reference, patent US20230355720A1 is where these values come from.
